# RUN_DESCRIPTION: CellTiter-Glo luminescent cell viability assay, primary fibroblasts
# SETUP_CONDITIONS: human, primary skin fibroblasts (non-tumorous), Primer fibroblast Cell viability (% of controll), 26 μM; 72 h; dose–response, individual replicates
PROPERTY: viability at 72 h, 26 µM (%)
Answers are plain numbers, in %.

Record viability at 72 h, 26 µM per entry; entries follow.
1. CNCC#Cc1cccc(CN2C(=O)C3=C(CCN(Cc4ccc(-n5cc(-c6ccc(F)cc6)nn5)cc4)C3)N3CCN=C23)c1 [43b]
2. CNCC#Cc1cccc(CN2C(=O)C3=C(CCN(Cc4ccc(-n5cc(-c6cccc(F)c6)nn5)cc4)C3)N3CCN=C23)c1 [43a]
3. CNCC#Cc1cccc(CN2C(=O)C3=C(CCN(Cc4ccc(-n5cc(-c6ccccc6)nn5)cc4)C3)N3CCN=C23)c1 [38b]
4. CNCC#Cc1cccc(CN2C(=O)C3=C(CCN(Cc4ccc(-n5cc(-c6cc(F)cc(F)c6)nn5)cc4)C3)N3CCN=C23)c1 [43c]
5. NCC#Cc1ccc(CN2C(=O)C3=C(CCN(Cc4ccc(-n5cc(-c6ccccc6)nn5)cc4)C3)N3CCN=C23)cc1 [I/B, reference compound]

(A)
[0, 0, 0, 0, 0]

---

# Test system: Fadu cells
# RUN_DESCRIPTION: CellTiter-Glo luminescent cell viability assay, Fadu
# SETUP_CONDITIONS: Fadu; 8.3 µM; 72 h; second-set screening; mean ± SD, n = 2
PROPERTY: Cell Viability (% of Control) 8.3 µM

Please review the entries below; each comes with its answer.
COMPOUND | Cell Viability (% of Control) 8.3 µM
NCC#Cc1cccc(CN2C(=O)C3=C(CCN(Cc4ccc(-n5cc(-[c-]6cccc6)nn5)cc4)C3)N3CCN=C23)c1.[Fe+2].c1cc[cH-]c1 | 56 ± 9 % of Control
NCC#Cc1cccc(CN2C(=O)C3=C(CCN(Cc4ccc(NC(=O)[c-]5cccc5)cc4)C3)N3CCN=C23)c1.[Fe+2].c1cc[cH-]c1 [23a] | 107 ± 7 % of Control

(Q) Given O=C1C2=C(CCN(Cc3ccc(-n4cc(-[c-]5cccc5)nn4)cc3)C2)N2CCN=C2N1Cc1cccc(C#CCN2CCCCC2)c1.[Fe+2].c1cc[cH-]c1 [40a] , state its recorded Cell Viability (% of Control) 8.3 µM.
(A) 81 ± 21 % of Control

---

# Test system: Fadu cells
# RUN_DESCRIPTION: CellTiter-Glo luminescent cell viability assay, Fadu
# SETUP_CONDITIONS: Homo sapiens, FaDu, 72 h, read-out: Cell Viability (% of Control) 25 µM, Fadu; 25 µM; 72 h; first-set screening; mean ± SD, n = 2
PROPERTY: viability at 25 µM (%)
Numbers only, in %.

Guide cases for viability at 25 µM, answers given:
COMPOUND | viability at 25 µM [%]
Cc1ccccc1CN1C(=O)C2=C(CCN(Cc3ccccc3)C2)N2CCN=C12 [ONC201, reference compound] | 27
O=C1C2=C(CCN(Cc3ccc(-n4cc(-c5ccccc5)nn4)cc3)C2)N2CCN=C2N1Cc1cccc(C#CCO)c1 [2d] | 78
C=CC(=O)Nc1cccc(-c2cn(-c3ccc(CN4CCC5=C(C4)C(=O)N(Cc4ccc(C#CCN)cc4)C4=NCCN45)cc3)nn2)c1 [1e] | 69
O=C1C2=C(CCN(Cc3cccc(-n4cc(-c5ccccc5)nn4)c3)C2)N2CCN=C2N1Cc1cccc(C#CCO)c1 [4d] | 23
O=C1C2=C(CCN(Cc3cccc(-n4cc(-c5ccccc5)nn4)c3)C2)N2CCN=C2N1Cc1ccc(C#CCO)cc1 [3d] | 23

Dear colleague, could you send me viability at 25 µM for each of the items below? Thanks.
1. NCC#Cc1cccc(CN2C(=O)C3=C(CCN(Cc4ccc(-n5cc(-c6ccccc6)nn5)cc4)C3)N3CCN=C23)c1 [2b]
2. NCC#Cc1ccc(CN2C(=O)C3=C(CCN(Cc4cccc(-n5cc(-c6ccccc6)nn5)c4)C3)N3CCN=C23)cc1 [3b]
3. O=C1C2=C(CCN(Cc3ccc(-n4cc(-c5ccccc5)nn4)cc3)C2)N2CCN=C2N1Cc1ccc(F)cc1 [16f]
4. O=C1C2=C(CCN(Cc3ccc(-n4cc(-c5ccccc5)nn4)cc3)C2)N2CCN=C2N1Cc1ccc(C#CCO)cc1 [1c]
5. NCC#Cc1ccc(CN2C(=O)C3=C(CCN(Cc4ccc(-n5cc(-c6cccc(N)c6)nn5)cc4)C3)N3CCN=C23)cc1 [1a]
6. Nc1cccc(-c2cn(-c3ccc(CN4CCC5=C(C4)C(=O)N(Cc4ccc(C#CCO)cc4)C4=NCCN45)cc3)nn2)c1 [1d]
7. NCC#Cc1cccc(CN2C(=O)C3=C(CCN(Cc4cccc(-n5cc(-c6ccccc6)nn5)c4)C3)N3CCN=C23)c1 [4b]

(A)
1: 0; 2: 22; 3: 77; 4: 64; 5: 10; 6: 84; 7: 0

(Q) Hello, I am looking for reported viability at 25 µM with Fadu cells for NCC#Cc1ccc(CN2C(=O)C3=C(CCN(Cc4ccc(-n5cc(-c6ccccc6)nn5)cc4)C3)N3CCN=C23)cc1 [I/B, reference compound] . Could you help?
(A) 0

---

# Test system: Fadu cells
# RUN_DESCRIPTION: CellTiter-Glo luminescent cell viability assay, Fadu
# SETUP_CONDITIONS: read-out: IC50 Value ± SEM Fadu; 72 h treatment; best-fit values; n = 3
Please go through the items and note down their IC50.
Just so you know, I need the unit written after the number.

MOLECULE | IC50
NCC#Cc1ccc(CN2C(=O)C3=C(CCN(Cc4ccc(-n5cc(-[c-]6cccc6)nn5)cc4)C3)N3CCN=C23)cc1.[Fe+2].c1cc[cH-]c1 [I/A, reference compound] | 10 µM

Now consider a different molecule.
(Q) I'm curious: which IC50 was measured for CNCC#Cc1cccc(CN2C(=O)C3=C(CCN(Cc4ccc(-n5cc(-[c-]6cccc6)nn5)cc4)C3)N3CCN=C23)c1.[Fe+2].c1cc[cH-]c1 [38a] tested on Fadu cells?
(A) 2.9 µM

---

# RUN_DESCRIPTION: CellTiter-Glo cell viability assay, HEK293T CLPP−/− (ClpP dependence);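 also: CellTiter-Glo luminescent signal read on a microplate reader once HEK293T CLPP−/− cells had been exposed to compounds for 72 h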
# SETUP_CONDITIONS: human, HEK293T CLPP−/− cells, HEK293T CLPP-/- Cell viability (% of controll), 0.4 μM; 72 h; dose–response, individual replicates
PROPERTY: viability at 72 h, 0.4 µM (%)
One number for each entry, in %.

(Q) Consider the molecule shown here: CNCC#Cc1cccc(CN2C(=O)C3=C(CCN(Cc4ccc(-n5cc(-c6ccccc6)nn5)cc4)C3)N3CCN=C23)c1 [38b] What is its recorded viability at 72 h, 0.4 µM?
(A) 113

---

# System: PANC-1 cells
# RUN_DESCRIPTION: CellTiter-Glo luminescent cell viability assay, PANC-1
# SETUP_CONDITIONS: Homo sapiens, PANC-1, 72 h, read-out: Cell Viability (% of Control) 25 µM, PANC-1; 25 µM; 72 h; second-set screening; mean ± SD, n = 2
Task for the reader: assign each of the following molecules its reported viability at 25 µM.
Numbers only, in %.

Illustrative cases are given below, each with its answer.
MOLECULE | viability at 25 µM, %
Cc1ccccc1CN1C(=O)C2=C(CCN(Cc3ccccc3)C2)N2CCN=C12 [ONC201, reference compound] | 22
NCC#Cc1cccc(CN2C(=O)C3=C(CCN(Cc4ccc(-n5cc(-c6ccccc6)nn5)cc4)C3)N3CCN=C23)c1 | 0

(Q) Entry NCC#Cc1cccc(CN2C(=O)C3=C(CCN(Cc4ccc(-n5cc(-c6ccc(F)cc6)nn5)cc4)C3)N3CCN=C23)c1 [36b] has what viability at 25 µM?
(A) 0

---

# System: Fadu cells
# RUN_DESCRIPTION: CellTiter-Glo luminescent cell viability assay, Fadu
# SETUP_CONDITIONS: Fadu; 8.3 µM; 72 h; first-set screening; mean ± SD, n = 2
PROPERTY: Cell Viability (% of Control) 8.3 µM

COMPOUND | Cell Viability (% of Control) 8.3 µM
O=C1C2=C(CCN(Cc3ccc(-n4cc(-[c-]5cccc5)nn4)cc3)C2)N2CCN=C2N1Cc1cccc(C#CCO)c1.[Fe+2].c1cc[cH-]c1 | 76 ± 4 % of Control
NCC#Cc1cccc(CN2C(=O)C3=C(CCN(Cc4ccc(-n5cc(-[c-]6cccc6)nn5)cc4)C3)N3CCN=C23)c1.[Fe+2].c1cc[cH-]c1 | 3 ± 0 % of Control

Parameters: items (list). Returns: Cell Viability (% of Control) 8.3 µM for each item.
1. O=C1C2=C(CCN(Cc3cccc(-n4cc(-[c-]5cccc5)nn4)c3)C2)N2CCN=C2N1Cc1ccc(C#CCO)cc1.[Fe+2].c1cc[cH-]c1
2. NCC#Cc1ccc(CN2C(=O)C3=C(CCN(Cc4ccc(-n5cc(-[c-]6cccc6)nn5)cc4)C3)N3CCN=C23)cc1.[Fe+2].c1cc[cH-]c1 [I/A, reference compound]

(A)
99 ± 2 % of Control
66 ± 24 % of Control
